Test system: MILI (PIWIL2) piRISC loaded with L1MC piRNA (26 nt);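 further: 1 nM active piRISC with 0.1 nM target library at 33 °C single turnover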
Test: pre-steady-state target cleavage rate (min^-1); guide: L1MC piRNA 5'p-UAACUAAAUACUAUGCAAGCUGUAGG; MIWI and MILI are mouse PIWI proteins and EfPiwi is from a freshwater sponge; tags in brackets are library labels; higher = faster piRNA-guided slicing of the target
Conditions: auxiliary factor: 500 nM mouse GTSF1
// values below are reported pre-steady-state target cleavage rate
READOUT_KIND: pre-steady-state target cleavage rate

• UCCUGGUACAGGAUGCAUAGUAUUUAGUAA = 0.172
• UCCUGCUACAGCUAGCAUACUAUUUAGUUA = 0.112
• UCCUGCCUACAGCUUGCAUAGUAUUUAGUUA = 0.342
• UCCUGGAACAGCUUGCGUAGUAUUUAGUUA = 0.277
• UCCUGGAACAGCAUGCAUAGUAUUUAGUUA = 0.256
• UCCUGGAACAGCUAGCAUAGUAAUUAGUUA = 0.155
• UCCUGGUACAGCUUGCUUAGUAUUUUGUUA = 0.0736
